# CONDITION_LABEL: in ethyl acetate, 323.15 K
MEASUREMENT_TYPE: solubility (mole fraction)

smiles_code=CN1CCN(C2=Nc3cc(Cl)ccc3Nc3ccccc32)CC1 readout_number=0.0265
